B1: LINE1-full (parent)
chain: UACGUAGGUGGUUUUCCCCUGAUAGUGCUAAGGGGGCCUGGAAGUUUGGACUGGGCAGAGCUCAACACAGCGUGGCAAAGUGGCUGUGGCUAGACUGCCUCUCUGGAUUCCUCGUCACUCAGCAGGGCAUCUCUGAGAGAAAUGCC

Variants of: B1
Assay: self-cleavage, relative activity (ratio to wild type); higher = more cleavage; in vitro, sequencing; the parent is a self-cleaving ribozyme
# self-cleavage >= 0.5 gives YES, anything below gives NO

variant_spec="U20C C66U" label=NO
variant_spec="U85A U132C" label=NO
variant_spec="G32A U39C" label=YES
variant_spec="U20A U87G" label=NO
variant_spec="G33A U119C" label=YES
variant_spec="G93A A94G" label=NO
variant_spec="U26A A43G" label=YES
variant_spec="U39A G49A" label=YES
variant_spec="C19U U26A" label=YES
variant_spec="U14C G34U" label=NO
variant_spec="G7U A65G" label=NO
variant_spec="U29C U100C" label=YES
variant_spec="U45A A67U" label=NO
variant_spec="U47C A94U" label=YES
variant_spec="G8A U14C" label=YES
variant_spec="G70A U134C" label=NO
variant_spec="U20C G41A" label=YES
variant_spec="U62C A78U" label=NO
variant_spec="U119C U130C" label=YES
variant_spec="U14G A136G" label=YES
